Below: a set of entries, each annotated with reported growth AUC.
test system: Roseburia intestinalis; assay: growth AUC relative to DMSO control (median of replicates) (fraction); higher = more growth (less inhibition), active = hit call of the paper; details: 20 µM; 24 h
The reply should be a number, written without any unit.

Reference set (2 entries):
{"molecule": "CCOP(=S)(OCC)SCS(=O)(=O)CC", "system.name": "Roseburia intestinalis", "readout.value": 0.947}
{"molecule": "COCCN(C(=O)CCl)c1c(C)cccc1C", "system.name": "Roseburia intestinalis", "readout.value": 0.96}

### Prompt Field request: growth AUC | item: `N#Cc1sc2c(=O)c3ccccc3c(=O)c=2sc1C#N`
### Response 1

### Prompt Could you do the same for `[CH3][Hg][Cl]` , please?
### Response 1.05

### Prompt Could you do the same for `Cc1cc(C)c(C2=C(OC(=O)CC(C)(C)C)C3(CCCC3)OC2=O)c(C)c1` , please?
### Response 0.989

### Prompt Could you do the same for CC(Oc1ccc(Oc2ncc(C(F)(F)F)cc2Cl)cc1)C(=O)O (stereo not drawn) , please?
### Response 1.03

### Prompt Could you do the same for `CCCOC(=O)c1ccccc1C(=O)OCCC` , please?
### Response 1.1

### Prompt Could you do the same for `CS(=O)(=O)c1ccc(C(=O)C2C(=O)CCCC2=O)c(Cl)c1` , please?
### Response 1.04

### Prompt Could you do the same for `CC(=O)O.NC(N)=NCCCCCCCCNCCCCCCCCN=C(N)N` , please?
### Response 0.039

### Prompt Could you do the same for `ClC(Cl)=C(c1ccc(Cl)cc1)c1ccc(Cl)cc1` , please?
### Response 0.945

### Prompt Could you do the same for COCC(=O)N(c1c(C)cccc1C)C(C)C(=O)OC (stereo not drawn) , please?
### Response 1.01

### Prompt Could you do the same for `CCNc1nc(Cl)nc(NC(C)C)n1` , please?
### Response 1.09

### Prompt Could you do the same for `O=C(O)COc1nc(Cl)c(Cl)cc1Cl` , please?
### Response 1.01

### Prompt Could you do the same for `O=C1c2ccccc2C(=O)N1SC(Cl)(Cl)Cl` , please?
### Response 0.99

* * *

Below: a set of entries, each annotated with reported growth AUC.
test system: Escherichia coli IAI1; test: growth AUC relative to DMSO control (median of replicates) (fraction); higher = more growth (less inhibition), active = hit call of the paper; conditions: 20 µM; 24 h
The reply should be a number, written without any unit.

Reference set (3 entries):
{"molecule": "CC(C)=CC1C(C(=O)OCc2cccc(Oc3ccccc3)c2)C1(C)C (mixture of isomers)", "growth AUC": 0.974}
{"molecule": "CC(C)(C)c1ccc(CCOc2ncnc3ccccc23)cc1", "growth AUC": 0.973}
{"molecule": "C1CCC(NC2CCCCC2)CC1.O=NO", "growth AUC": 0.95}

Moving on to the next molecule.
### Prompt Escherichia coli IAI1 / growth AUC / `O=c1c2cc(F)ccc2nc(-n2cncn2)n1-c1ccc(Cl)cc1Cl` : value?
### Response 0.99

* * *

tested on: Eubacterium rectale; experiment: growth AUC relative to DMSO control (median of replicates) (fraction); higher = more growth (less inhibition), active = hit call of the paper; details: 20 µM; 24 h
measured.quantity: growth AUC
The reply should be a number, written without any unit.

{"compound": "CO/N=C(/C(=O)OC)c1ccccc1COc1ccccc1C", "measured.quantity": "growth AUC", "readout.value": 0.939}
{"compound": "CC(Oc1cc(Cl)c(Cl)cc1Cl)C(=O)O (stereo unspecified)", "measured.quantity": "growth AUC", "readout.value": 0.964}
{"compound": "CCCCOC(=O)c1ccccc1C(=O)OCCCC", "measured.quantity": "growth AUC", "readout.value": 1.07}
{"compound": "CCOc1cc(OP(=S)(OC)OC)nc(CC)n1", "measured.quantity": "growth AUC", "readout.value": 1.04}

### Prompt Eubacterium rectale / growth AUC / `COP(=S)(OC)Oc1ccc([N+](=O)[O-])c(Cl)c1` : value?
### Response 1.18

### Prompt Could you do the same for `Nc1ccncc1` , please?
### Response 0.949

### Prompt Could you do the same for CCCCC(CC)COC(=O)c1ccccc1C(=O)OCC(CC)CCCC (stereo unspecified) , please?
### Response 1.02

### Prompt Could you do the same for `CCOP(=O)(OCC)OCC` , please?
### Response 1.01

### Prompt Could you do the same for O=C1OCC2C1C1(Cl)C(Cl)=C(Cl)C2(Cl)C1(Cl)Cl (stereo unspecified) , please?
### Response 1.07

### Prompt Could you do the same for `COc1cc(OC)nc(NC(=O)[N-]S(=O)(=O)c2ncccc2OCC(F)(F)F)n1.[Na+]` , please?
### Response 1.04

### Prompt Could you do the same for `CSc1nc(NC(C)C)nc(NC(C)C)n1` , please?
### Response 0.917

### Prompt Could you do the same for `O=C1C(Cl)=C(Cl)C(=O)c2ccccc21` , please?
### Response 1.34

### Prompt Could you do the same for `CCC(C)(c1ccc(O)cc1)c1ccc(O)cc1` , please?
### Response 0.882

### Prompt Could you do the same for `CN(C)C(CSS(=O)(=O)c1ccccc1)CSS(=O)(=O)c1ccccc1` , please?
### Response 1.53

### Prompt Could you do the same for `CNC(=O)Oc1cc(C)c(N(C)C)c(C)c1` , please?
### Response 1

### Prompt Could you do the same for `CCCCOC(=O)[C@@H](C)Oc1ccc(Oc2ccc(C#N)cc2F)cc1` , please?
### Response 1.11

### Prompt Could you do the same for CCN(CC)C(=O)C(C)Oc1cccc2ccccc12 (stereo unspecified) , please?
### Response 0.983

### Prompt Could you do the same for `CCCSP(=O)(OCC)SCCC` , please?
### Response 1.07

### Prompt Could you do the same for `O=P(O)(O)CCCl` , please?
### Response 1.22

### Prompt Could you do the same for `CO/C=C(/C(=O)OC)c1ccccc1COc1cccc(C(F)(F)F)n1` , please?
### Response 0.937

### Prompt Could you do the same for `Clc1cc(Cl)c(Cl)c(Cl)c1` , please?
### Response 1.05

### Prompt Could you do the same for `COc1cc(OC)n2nc(S(=O)(=O)Nc3c(Cl)ccc(C)c3Cl)nc2n1` , please?
### Response 0.994

### Prompt Could you do the same for `CCNc1nc(NC(C)C)[nH]c(=O)n1` , please?
### Response 0.992

### Prompt Could you do the same for `Nc1ncn[nH]1` , please?
### Response 0.987

### Prompt Could you do the same for `COC(=O)C1(O)c2ccccc2-c2ccccc21` , please?
### Response 0.95

### Prompt Could you do the same for `COP(=S)(OC)Oc1c(Cl)cc(C)cc1Cl` , please?
### Response 1

* * *

test system: Akkermansia muciniphila; assay: growth AUC relative to DMSO control (median of replicates) (fraction); higher = more growth (less inhibition), active = hit call of the paper; details: 20 µM; 24 h
Below: a set of entries, each annotated with reported growth AUC.
The reply should be a number, written without any unit.

Reference set (3 entries):
{"compound": "CCOP(=O)(OCC)Oc1ccc(S(C)(=O)=O)cc1", "system.name": "Akkermansia muciniphila", "growth AUC": 1.01}
{"compound": "COC(=O)c1sccc1S(=O)(=O)NC(=O)Nc1nc(C)nc(OC)n1", "system.name": "Akkermansia muciniphila", "growth AUC": 1.13}
{"compound": "ClC(Cl)=C(c1ccc(Cl)cc1)c1ccc(Cl)cc1", "system.name": "Akkermansia muciniphila", "growth AUC": 1.1}

### Prompt Akkermansia muciniphila / growth AUC / `O=[N+]([O-])c1cc(C(F)(F)F)c(Cl)c([N+](=O)[O-])c1Nc1ncc(C(F)(F)F)cc1Cl` : value?
### Response 1.01

### Prompt Could you do the same for `O=C(O)c1ccc(Cl)nc1` , please?
### Response 0.953

### Prompt Could you do the same for `CN(C)C(=O)Nc1cccc(OC(=O)NC(C)(C)C)c1` , please?
### Response 1.19

### Prompt Could you do the same for `O=C(O)c1c(Cl)ccc2cc(Cl)cnc12` , please?
### Response 0.898

* * *

tested on: Bacteroides thetaiotaomicron; assay: growth AUC relative to DMSO control (median of replicates) (fraction); higher = more growth (less inhibition), active = hit call of the paper; conditions: 20 µM; 24 h
Below: a set of entries, each annotated with reported growth AUC.
The reply should be a number, written without any unit.

Reference set (10 entries):
{"molecule": "COP(=S)(OC)Oc1c(Cl)cc(C)cc1Cl", "growth AUC": 1.01}
{"molecule": "CCC(C)(NC(=O)c1cc(Cl)c(C)c(Cl)c1)C(=O)CCl (stereo unspecified)", "growth AUC": 0.908}
{"molecule": "COCCOC(=O)C(C#N)(C(=O)c1ccccc1C(F)(F)F)c1ccc(C(C)(C)C)cc1 (stereo unspecified)", "growth AUC": 1.01}
{"molecule": "Clc1ccccc1Cl", "growth AUC": 0.986}
{"molecule": "CC(Cc1ccc(C(C)(C)C)cc1)CN1C[C@@H](C)O[C@@H](C)C1 (stereo partly specified)", "growth AUC": 0.996}
{"molecule": "CCC1(C(=O)NC(C)c2ccc(Cl)cc2)C(C)C1(Cl)Cl (stereo unspecified)", "growth AUC": 0.909}
{"molecule": "N#Cc1sc2c(=O)c3ccccc3c(=O)c=2sc1C#N", "growth AUC": 0.974}
{"molecule": "Nc1cccc(Cl)c1Cl", "growth AUC": 0.999}
{"molecule": "O=C(NCCc1ncc(C(F)(F)F)cc1Cl)c1ccccc1C(F)(F)F", "growth AUC": 0.973}
{"molecule": "C[N+](C)(C)CCCl.[Cl-]", "growth AUC": 1.02}

### Prompt Field request: growth AUC | item: COC(=O)C(C)Oc1ccc(Oc2ccc(Cl)cc2Cl)cc1 (stereo unspecified)
### Response 0.986

### Prompt Could you do the same for CC(C)CC(C)c1sccc1NC(=O)c1cn(C)nc1C(F)(F)F (stereo unspecified) , please?
### Response 0.938

### Prompt Could you do the same for `CCCCOC(=O)N(C)SN(C)C(=O)Oc1cccc2c1OC(C)(C)C2` , please?
### Response 1.04
